Biological target: Ba/F3-TEL-FGFR2 (Homo sapiens, UniProt P21802+P41212)
Sequence (P21802 481-770 limits assumed, one chain of several): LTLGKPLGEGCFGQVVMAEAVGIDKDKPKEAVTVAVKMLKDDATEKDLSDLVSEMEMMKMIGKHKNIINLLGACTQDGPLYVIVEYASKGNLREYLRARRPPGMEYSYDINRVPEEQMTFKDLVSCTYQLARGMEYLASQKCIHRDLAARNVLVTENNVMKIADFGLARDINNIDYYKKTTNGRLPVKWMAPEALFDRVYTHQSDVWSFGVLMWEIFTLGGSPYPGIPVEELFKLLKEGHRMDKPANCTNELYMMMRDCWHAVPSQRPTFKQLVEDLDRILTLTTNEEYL
Assay: Cell viability (proliferation inhibition) of Ba/F3 cells, CellTiter Glo
Details: read-out: Ba/F3 cell FGFR2 (IC50 nM), 72 h
endpoint name: IC50 (nM)
Answers are plain numbers, in nM.

Example results:
Prompt line: Given the compound `C=C(C)C(=O)Nc1ccc(-c2c(-c3ccc(N=S4(=O)CCC4)c(F)c3)c3c(N)ncnc3n2C)c(F)c1` , what is its reported IC50?
Response line: 0.8

Prompt line: Given the compound `[2H]c1c([2H])c(-c2c(-c3ccc(NC(=O)C(=C)C)cc3F)n(C)c3ncnc(N)c23)c([2H])c([2H])c1N=S1(=O)CCCC1` , what is its reported IC50?
Response line: 1.2

Prompt line: Given the compound `C=C(C)C(=O)Nc1ccc(-c2c(-c3ccc(N=S4(=O)CCCC4)c(F)c3)c3c(N)ncnc3n2C)c(C)c1` , what is its reported IC50?
Response line: 2.7

Prompt line: Given the compound `C=C(C)C(=O)Nc1ccc(-c2c(-c3ccc(N=S4(=O)CCCC4)c(C(F)F)c3)c3c(N)ncnc3n2C)c(F)c1` , what is its reported IC50?
Response line: 6.5

Provide reported IC50 for each item, in the same order as listed.
1. C=C(C)C(=O)Nc1ccc(-c2c(-c3ccc(N=S4(=O)CCCC4)c(F)c3)c3c(N)ncnc3n2C)c(C(F)F)c1
2. C=C(F)C(=O)Nc1ccc(-c2c(-c3ccc(N=S4(=O)CCCCC4)cc3)c3c(N)ncnc3n2C)cc1
3. C=C(C)C(=O)Nc1ccc(-c2c(-c3ccc(N=S4(=O)CCCC4)c(C)c3)c3c(N)ncnc3n2C)c(F)c1
4. C=C(C)C(=O)Nc1ccc(-c2c(-c3ccc(N=S4(=O)CC5(COC5)C4)c(F)c3)c3c(N)ncnc3n2C)cc1
5. C=C(C)C(=O)Nc1ccc(-c2c(-c3ccc(N=S4(=O)CCCC4)c(Cl)c3)c3c(N)ncnc3n2C)c(F)c1
6. C=C(C)C(=O)Nc1ccc(-c2c(-c3ccc(N=S4(=O)CCCC4)cc3)c3c(N)ncnc3n2CCN(C)C)c(F)c1
7. C=C(C)C(=O)Nc1ccc(-c2c(-c3ccc(N=S4(=O)CCCC4)cc3)c3c(N)ncnc3n2CC(C)(C)O)c(F)c1

Response line:
1. 7.8
2. 0.5
3. 2.1
4. 172
5. 1.5
6. 585
7. 61.1

Prompt line: Given the compound `[2H]C([2H])([2H])n1c(-c2cc(C)c(NC(=O)C(=C)C)cc2Cl)c(-c2ccc(N=S3(=O)CCCC3)c(F)c2)c2c(N)ncnc21` , what is its reported IC50?
Response line: 3.6

---

Molecular target: hERG (Homo sapiens, UniProt Q12809)
Sequence (Q12809 whole entry): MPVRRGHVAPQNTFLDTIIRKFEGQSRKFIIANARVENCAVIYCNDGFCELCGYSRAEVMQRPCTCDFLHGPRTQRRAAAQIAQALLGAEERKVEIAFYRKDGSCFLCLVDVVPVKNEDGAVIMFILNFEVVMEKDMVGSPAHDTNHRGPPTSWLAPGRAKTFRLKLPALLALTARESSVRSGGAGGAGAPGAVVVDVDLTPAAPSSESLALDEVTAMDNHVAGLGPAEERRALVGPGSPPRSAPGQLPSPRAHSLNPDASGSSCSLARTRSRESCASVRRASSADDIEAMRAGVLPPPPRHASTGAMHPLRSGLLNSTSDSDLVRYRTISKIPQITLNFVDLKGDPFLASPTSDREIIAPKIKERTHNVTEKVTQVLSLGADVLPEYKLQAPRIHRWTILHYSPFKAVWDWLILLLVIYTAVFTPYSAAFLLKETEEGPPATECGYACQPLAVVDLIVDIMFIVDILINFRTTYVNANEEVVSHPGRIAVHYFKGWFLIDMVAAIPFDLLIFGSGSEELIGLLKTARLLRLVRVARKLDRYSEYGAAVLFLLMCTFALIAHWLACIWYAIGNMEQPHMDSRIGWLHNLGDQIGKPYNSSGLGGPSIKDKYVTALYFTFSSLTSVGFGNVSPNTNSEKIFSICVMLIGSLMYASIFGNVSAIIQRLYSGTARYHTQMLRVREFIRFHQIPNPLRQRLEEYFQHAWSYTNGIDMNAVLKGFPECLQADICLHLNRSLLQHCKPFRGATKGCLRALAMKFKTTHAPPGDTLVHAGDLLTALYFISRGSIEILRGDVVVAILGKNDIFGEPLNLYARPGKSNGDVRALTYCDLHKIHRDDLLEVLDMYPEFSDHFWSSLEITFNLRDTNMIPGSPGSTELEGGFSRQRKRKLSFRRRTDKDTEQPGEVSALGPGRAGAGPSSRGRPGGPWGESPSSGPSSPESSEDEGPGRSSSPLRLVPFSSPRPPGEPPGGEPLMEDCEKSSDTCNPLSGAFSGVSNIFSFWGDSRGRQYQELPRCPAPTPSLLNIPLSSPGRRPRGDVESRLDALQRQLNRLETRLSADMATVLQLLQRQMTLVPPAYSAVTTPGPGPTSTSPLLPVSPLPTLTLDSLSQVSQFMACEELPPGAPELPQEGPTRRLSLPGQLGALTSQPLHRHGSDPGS
Experiment: Manual patch clamp, hERG channel current in HEK-293 cells
Conditions: human, hek-293 cells
endpoint name: inhibition at 10 µM

Prompt line: Give recorded inhibition at 10 µM with hERG (Homo sapiens, UniProt Q12809) for the following molecule: `C=C(C)C(=O)Nc1ccc(-c2c(-c3ccc(N=S4(=O)CCCC4)cc3)c3c(N)ncnc3n2C)c(F)c1`
Response line: 32.2%

---

Consider the following compounds; for each one, report its half-life.
Test: Pharmacokinetic test in rats
Type: in vivo, male SD rats
Settings: male, SD, rat, plasma, oral gavage administration, 10 mg/kg

Prompt line: Given the compound `C=C(C)C(=O)Nc1ccc(-c2c(-c3ccc(N=S4(=O)CCCC4)c(F)c3)c3c(N)ncnc3n2C)cc1` , what is its reported half-life?
Response line: 1.32 h

Consider now this further compound.
Prompt line: Given the compound C=C(C)C(=O)Nc1ccc(-c2c(-c3ccc(Oc4nccc(C)n4)c(F)c3)c3c(N)ncnc3n2C)cc1 [Control compound I, reference compound] , what is its reported half-life?
Response line: 0.85 h

---

Assay: Pharmacokinetic test in rats
Assay type: in vivo, male SD rats
Conditions: rat, plasma, oral gavage administration, 10 mg/kg
Protocol: Rat pharmacokinetic experiments were performed using male SD rats, 180-220g, provided by Beijing Vital River Laboratory Animal Technology Co., Ltd. 3 rats that were fasted overnight were taken, and administered orally by gavage (10 mg/kg). […] The main pharmacokinetic parameters were analyzed using WinNonlin8.2 software for non compartmental model analysis. […]
# AUC(0-t) >= 1000 ng·h/mL gives Yes, anything below gives No

Prompt line: Is it the case that `C=C(C)C(=O)Nc1ccc(-c2c(-c3ccc(N=S4(=O)CCCC4)cc3)c3c(N)ncnc3n2C)c(F)c1` has AUC(0-t) reaching or exceeding 1000 ng·h/mL?
Response line: No

Prompt line: Is it the case that C=C(C)C(=O)Nc1ccc(-c2c(-c3ccc(N=S(=O)(N(C)C)C(F)(F)F)c(F)c3)c3c(N)ncnc3n2C)cc1 (stereo not drawn) has AUC(0-t) reaching or exceeding 1000 ng·h/mL?
Response line: No

Prompt line: Is it the case that `C=C(C)C(=O)Nc1ccc(-c2c(-c3ccc(N=S4(=O)CC(C)(C)C4)cc3)c3c(N)ncnc3n2C)c(F)c1` has AUC(0-t) reaching or exceeding 1000 ng·h/mL?
Response line: Yes

Prompt line: Is it the case that `[2H]C([2H])([2H])n1c(-c2ccc(NC(=O)C(=C)C)cc2F)c(-c2ccc(N=S3(=O)CCCC3)cc2)c2c(N)ncnc21` has AUC(0-t) reaching or exceeding 1000 ng·h/mL?
Response line: Yes

Prompt line: Is it the case that `C=C(C)C(=O)Nc1ccc(-c2c(-c3ccc(N=S(=O)(CC)CC)cc3)c3c(N)ncnc3n2C)c(F)c1` has AUC(0-t) reaching or exceeding 1000 ng·h/mL?
Response line: Yes

Now, please, on to the next molecule.
Prompt line: Is it the case that `C=C(C)C(=O)Nc1ccc(-c2c(-c3ccc(N=S4(=O)CCC4)cc3)c3c(N)ncnc3n2C)c(F)c1` has AUC(0-t) reaching or exceeding 1000 ng·h/mL?
Response line: No

---

Target: Ba/F3-TEL-FGFR1 (Homo sapiens, UniProt P11362+P41212)
Sequence (P11362 478-767 limits assumed, one chain of several): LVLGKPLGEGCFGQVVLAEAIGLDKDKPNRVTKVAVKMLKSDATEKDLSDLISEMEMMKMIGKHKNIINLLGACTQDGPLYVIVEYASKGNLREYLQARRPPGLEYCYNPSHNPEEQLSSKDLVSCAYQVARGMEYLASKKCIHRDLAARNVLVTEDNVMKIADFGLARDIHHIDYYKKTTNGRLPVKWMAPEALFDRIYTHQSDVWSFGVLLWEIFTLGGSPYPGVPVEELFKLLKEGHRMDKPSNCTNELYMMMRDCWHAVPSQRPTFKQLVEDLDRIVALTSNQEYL
Experiment: Cell viability (proliferation inhibition) of Ba/F3 cells, CellTiter Glo
Details: read-out: Ba/F3 cell FGFR1 (IC50 nM), 72 h
endpoint name: IC50 (nM)
Give bare numbers, in nM.

Example results:
Prompt line: Given the compound C=C(C)C(=O)Nc1ccc(-c2c(-c3ccc(N=S(=O)(CC)CC)cc3)c3c(N)ncnc3n2C)c(F)c1 [Compound 58] , what is its reported IC50?
Response line: 2030

Prompt line: Given the compound C=C(C)C(=O)Nc1ccc(-c2c(-c3ccc(N=S4(=O)CCCC4)c(Cl)c3)c3c(N)ncnc3n2C)c(F)c1 [Compound 88] , what is its reported IC50?
Response line: 561

Provide reported IC50 for each item, in the same order as listed.
1. C=C(C)C(=O)Nc1ccc(-c2c(-c3ccc(N=S4(=O)CCCC4)cc3)c3c(N)ncnc3n2C)c(F)c1 [Compound 24]
2. C=C(C)C(=O)Nc1ccc(-c2c(-c3ccc(N=S(=O)(CC)CC)c(F)c3)c3c(N)ncnc3n2C)c(F)c1 [Compound 100]
3. C=C(C)C(=O)Nc1ccc(-c2c(-c3ccc(N=S4(=O)CCCC4)c(F)c3)c3c(N)ncnc3n2C)c(C)c1 [Compound 22]

Response line:
1910
823
717

Provide reported IC50 for each item, in the same order as listed.
1. C=C(C)C(=O)Nc1ccc(-c2c(-c3ccc(N=S4(=O)CCC4)c(F)c3)c3c(N)ncnc3n2C)c(F)c1 [Compound 75]
2. [2H]C([2H])([2H])n1c(-c2ccc(NC(=O)C(=C)C)cc2F)c(-c2ccc(N=S3(=O)C=CC=C3)cc2)c2c(N)ncnc21 [Compound 98]

Response line:
1. 701
2. 416

---

Biological target: hERG (Homo sapiens)
Assay: Manual patch clamp, hERG channel current in HEK-293 cells
Settings: human, hek-293 cells
endpoint name: inhibition at 3 µM (%)
Numbers only, in %.

Prompt line: Give recorded inhibition at 3 µM with hERG (Homo sapiens) for the following molecule: `C=C(C)C(=O)Nc1ccc(-c2c(-c3ccc(N=S4(=O)CCCC4)cc3)c3c(N)ncnc3n2C)c(F)c1`
Response line: 10.2

---

Molecular target: Ba/F3-TEL-FGFR2 (Homo sapiens, UniProt P21802+P41212)
Experiment: Cell viability (proliferation inhibition) of Ba/F3 cells, CellTiter Glo
Conditions: read-out: Ba/F3 cell FGFR2 (IC50 nM), 72 h
Criterion: IC50 strictly under 20 nM. Met: 1. Not met: -1.

Below are worked cases with known answers.
Prompt line: # check: IC50 < 20 nM for `C=C(C)C(=O)Nc1ccc(-c2c(-c3cc(F)c(N=S4(=O)CCC4)cc3F)c3c(N)ncnc3n2C)c(F)c1`
Response line: 1

Prompt line: # check: IC50 < 20 nM for `C=C(C)C(=O)Nc1ccc(-c2c(-c3ccc(N=S4(=O)CCC4)cc3)c3c(N)ncnc3n2C)c(F)c1`
Response line: 1

Prompt line: # check: IC50 < 20 nM for C=C(C)C(=O)Nc1ccc(-c2c(-c3ccc(N=S(=O)(N4CCC4)C(F)(F)F)c(F)c3)c3c(N)ncnc3n2C)cc1 (centres unmarked)
Response line: 1

More entries:
Prompt line: # check: IC50 < 20 nM for `C=C(C)C(=O)Nc1ccc(-c2c(-c3ccc(N=S4(=O)CCOCC4)cc3)c3c(N)ncnc3n2C)c(F)c1`
Response line: -1

Prompt line: # check: IC50 < 20 nM for `C=C(C)C(=O)Nc1ccc(-c2c(-c3ccc(N=S4(=O)CCOCC4)c(F)c3)c3c(N)ncnc3n2C)cc1`
Response line: -1

Prompt line: # check: IC50 < 20 nM for C=C(C)C(=O)Nc1ccc(-c2c(-c3ccc(N=S(=O)(N(C)C)C(F)(F)F)cc3)c3c(N)ncnc3n2C)cc1 (centres unmarked)
Response line: 1

Prompt line: # check: IC50 < 20 nM for `C=C(C)C(=O)N1CC=C(c2c(-c3ccc(N=S4(=O)CCCCC4)cc3)c3c(N)ncnc3n2C)CC1`
Response line: -1

Prompt line: # check: IC50 < 20 nM for `C=C(C)C(=O)Nc1ccc(-c2c(-c3ccc(N=S(=O)(C4CC4)C4CC4)cc3)c3c(N)ncnc3n2C)cc1`
Response line: -1

Prompt line: # check: IC50 < 20 nM for `C=C(F)C(=O)N1CC=C(c2c(-c3ccc(N=S4(=O)CCCCC4)cc3)c3c(N)ncnc3n2C)CC1`
Response line: -1

Prompt line: # check: IC50 < 20 nM for `C=C(C)C(=O)Nc1ccc(-c2c(-c3cc(F)c(N=S4(=O)CCCC4)c(F)c3)c3c(N)ncnc3n2C)cc1`
Response line: -1
